Subject Of Test: SdeC (Legionella pneumophila)
Construct: gene lpg2153
Assay Details: biochemical
Overview of reported IC50 across a group of molecules:
Give me the value, and tack the unit on after it.

INSERT INTO results (smiles_text, observed_value) VALUES
  ('NC(=O)c1cccc([C@@H]2O[C@H](COP(=O)(O)OP(=O)(O)OC[C@H]3O[C@@H](n4cnc5c(N)ncnc54)[C@H](O)[C@@H]3O)[C@@H](O)[C@H]2O)c1', '38.9 µM');

Attention now turns to another entry.
Req: Give its IC50 value. Item: NC(=O)c1ccc[n+]([C@@H]2S[C@H](COP(=O)(O)OP(=O)([O-])OC[C@H]3O[C@@H](n4cnc5c(N)ncnc54)[C@H](O)[C@@H]3O)[C@@H](O)[C@H]2O)c1
Resp: 27.9 µM
